- Test system: SN12C
- method.notes: NCI tumour cell line growth inhibition, 48 h
The source made the active and inactive calls. No stated cut-off is given here; in the data, active = GI50 up to about 1.1 µM and inactive = higher.
Please answer using one outcome listed in active, inactive

Record excerpt, results attached:
compound: O=c1oc2ccccc2c(-c2ccc(O)cc2)c1Oc1ccc(Cl)cc1
assigned.category: inactive
//
compound: O=[N+]([O-])c1ccc(-c2nc(/C=N/N3CCCCC3)cs2)o1
assigned.category: inactive
//
compound: COc1ccc(OC)c(/C=C/C(=O)C(C)(C)C)c1
assigned.category: inactive
//
compound: c1ccc([B-]2(c3ccccc3)NCCCO2)cc1
assigned.category: inactive
//
compound: CN/C(=N\C#N)N(Cc1ccccc1)Cc1ccccc1
assigned.category: inactive
//
compound: CCOC(=O)/C(O)=C(/C(=O)OC)c1ccc(Cl)cc1
assigned.category: inactive

Then this compound:
What is the recorded call for this compound in the test? CCCCCCCCCCCCC(CC)CCCCC(=O)O (stereo not given) inactive
